Sourced from ChEMBL document CHEMBL4811220

- assay-details: Selectivity index, ratio of IC50 for cytotoxicity against human HepG2-A16-CD81EGFP cells to IC50 for antiplasmodial activity against multidrug-resistant asexual intraerythrocytic stage of Plasmodium falciparum Dd2
- Type: toxicity, cell-based
- condition-info: read-out: Ratio IC50

- chemical-smiles: "CNC(=O)CN(Cc1ccc(C(=O)NO)cc1)C(=O)c1ccc(C(C)C)cc1"
  selectivity ratio: 4580

---

- Test system: HepG2
- assay-details: Cytotoxicity against human HepG2-A16-CD81EGFP cells assessed as inhibition of cell growth incubated for 24 hrs followed by medium transfer and incubation in multimode plate for 48 hrs by CellTiterGlo reagent based luminescence assay

- chemical-smiles: "O=C(CN(Cc1ccc(C(=O)NO)cc1)C(=O)c1cccc2ccccc12)NCc1ccccc1"
  experimental-target: "HepG2"
  IC50: "12.8 µM"
- chemical-smiles: "Cc1ccccc1C(=O)N(CC(=O)NCc1ccccc1)Cc1ccc(C(=O)NO)cc1"
  experimental-target: "HepG2"
  IC50: "9.62 µM"
- chemical-smiles: "Cc1ccccc1C(=O)N(CC(=O)NC12CC3CC(CC(C3)C1)C2)Cc1ccc(C(=O)NO)cc1"
  experimental-target: "HepG2"
  IC50: "13 µM"
- chemical-smiles: "Cc1cc(C)cc(C(=O)N(CC(=O)N2CCCCC2)Cc2ccc(C(=O)NO)cc2)c1"
  experimental-target: "HepG2"
  IC50: "35 µM"
- chemical-smiles: "Cc1cc(C)cc(C(=O)N(CC(=O)N(C)C)Cc2ccc(C(=O)NO)cc2)c1"
  experimental-target: "HepG2"
  IC50: "> 50 µM"
- chemical-smiles: "O=C(CCCCCCC(=O)Nc1ccccc1)NO"
  experimental-target: "HepG2"
  IC50: "7.6 µM"
- chemical-smiles: "CC(C)c1ccc(C(=O)N(Cc2ccc(C(=O)NO)cc2)C(C)(C)C(=O)NC2CCCCC2)cc1"
  experimental-target: "HepG2"
  IC50: "> 50 µM"
- chemical-smiles: "O=C(CN(Cc1ccc(C(=O)NO)cc1)C(=O)Cc1ccccc1)NCc1ccccc1"
  experimental-target: "HepG2"
  IC50: "21.9 µM"
- chemical-smiles: "CNC(=O)CN(Cc1ccc(C(=O)NO)cc1)C(=O)c1ccc(C(C)C)cc1"
  experimental-target: "HepG2"
  IC50: "9.16 µM"

---

- assay-details: Selectivity index, ratio of IC50 for cytotoxicity against human HepG2-A16-CD81EGFP cells to IC50 for antiplasmodial activity against drug-sensitive asexual intraerythrocytic stage of Plasmodium falciparum 3D7 infected in human O+ erythrocytes
Mark each entry Fulfilled if its selectivity ratio sits below 200, and Not fulfilled for all others.

- chemical-smiles: "Cc1ccccc1C(=O)N(CC(=O)NC12CC3CC(CC(C3)C1)C2)Cc1ccc(C(=O)NO)cc1"
  category-label: "Fulfilled"
- chemical-smiles: "O=C(CN(Cc1ccc(C(=O)NO)cc1)C(=O)c1cccc2ccccc12)NCc1ccccc1"
  category-label: "Not fulfilled"
- chemical-smiles: "CNC(=O)CN(Cc1ccc(C(=O)NO)cc1)C(=O)c1ccc(C(C)C)cc1"
  category-label: "Not fulfilled"
- chemical-smiles: "CC(C)c1ccc(CC(=O)N(CC(=O)NC2CCCCC2)Cc2ccc(C(=O)NO)cc2)cc1"
  category-label: "Fulfilled"
- chemical-smiles: "Cc1ccc(C(=O)N(CC(=O)NC2CCCCC2)Cc2ccc(C(=O)NO)cc2)c(C)c1"
  category-label: "Not fulfilled"
- chemical-smiles: "CC(C)c1ccc(C(=O)N(Cc2ccc(C(=O)NO)cc2)C(C)(C)C(=O)NC2CCCCC2)cc1"
  category-label: "Not fulfilled"
- chemical-smiles: "O=C(CN(Cc1ccc(C(=O)NO)cc1)C(=O)Cc1ccccc1)NCc1ccccc1"
  category-label: "Fulfilled"
- chemical-smiles: "Cc1ccc(C(=O)N(CC(=O)NCc2ccccc2)Cc2ccc(C(=O)NO)cc2)c(C)c1"
  category-label: "Fulfilled"
- chemical-smiles: "Cc1cc(C)cc(C(=O)N(CC(=O)N2CCCCC2)Cc2ccc(C(=O)NO)cc2)c1"
  category-label: "Fulfilled"
- chemical-smiles: "Cc1ccccc1C(=O)N(CC(=O)NCc1ccccc1)Cc1ccc(C(=O)NO)cc1"
  category-label: "Fulfilled"
- chemical-smiles: "CC(C)c1ccc(C(=O)N(CC(=O)NC23CC4CC(CC(C4)C2)C3)Cc2ccc(C(=O)NO)cc2)cc1"
  category-label: "Fulfilled"
- chemical-smiles: "CN(C)c1ccc(C(=O)N(Cc2ccc(C(=O)NO)cc2)C(C)(C)C(=O)NCc2ccccc2)cc1"
  category-label: "Not fulfilled"
- chemical-smiles: "CC(C)c1ccc(C(=O)N(Cc2ccc(C(=O)NO)cc2)C(C)(C)C(=O)NCc2ccccc2)cc1"
  category-label: "Not fulfilled"
- chemical-smiles: "CC(C)c1ccc(CC(=O)N(CC(=O)NCc2ccccc2)Cc2ccc(C(=O)NO)cc2)cc1"
  category-label: "Not fulfilled"
